Each recorded value in this set is attributed to ChEMBL document CHEMBL1201862.

Test system: PC-3
ASSAY INFO: NCI tumour cell line growth inhibition, 48 h
Calls of active or inactive are those of the source. Cut-off read from the data, not from the text of the source: active = GI50 up to about 1.1 µM and inactive = higher. Peptide text beside a SMILES is read from it. * marks the point of attachment. Cbz = O=C(OCc1ccccc1)*
MEASURE NAME: GI50

- COMPOUND: "NS(=O)(=O)c1ccc(NC(=O)Nc2ccccc2F)cc1"
  REPORTED MEASUREMENT: "> 100 µM (inactive)"
- COMPOUND: "COC(=O)[C@@H]1C=C[C@H](OC2OC(COC(C)=O)C(OC(C)=O)C(OC(C)=O)C2OC(C)=O)n2c(=O)c3ccccc3c(=O)n21 (stereo not given in full)"
  REPORTED MEASUREMENT: "6.62 µM (inactive)"
- COMPOUND: "Cc1ccc(S(=O)(=O)NC(CCC(=O)NN)C(=O)NN)cc1 (stereo not given)"
  REPORTED MEASUREMENT: "> 100 µM (inactive)"
- COMPOUND: "O=c1c2cc([N+](=O)[O-])ccc2n2n1Cc1ccccc1C2"
  REPORTED MEASUREMENT: "32.4 µM (inactive)"
- COMPOUND: "CCc1ccccc1NC(=O)C(C#N)C1=C(Cl)C(=O)c2ccccc2C1=O (stereo not given)"
  REPORTED MEASUREMENT: "14.6 µM (inactive)"
- COMPOUND: "COC(=O)C1=C([C@H]2COC(C)(C)O2)[C@H]2C[C@@H]1[C@@H]1OC(C)(C)O[C@@H]12"
  REPORTED MEASUREMENT: "> 100 µM (inactive)"
- COMPOUND: "CCOP(=O)(OCC)C(C)(C)N(C)/C(F)=N/C(F)(F)F"
  REPORTED MEASUREMENT: "> 100 µM (inactive)"
- COMPOUND: "O=C1C2SC34c5c2c2ccccc2n5CCC3CCCN14 (stereo not given)"
  REPORTED MEASUREMENT: "54.8 µM (inactive)"
- COMPOUND: "CCCCCCC(CCl)c1sc(-c2csc(CCNC(=O)OC(C)(C)C)n2)nc1C(=O)OC (stereo not given)"
  REPORTED MEASUREMENT: "15.9 µM (inactive)"
- COMPOUND: "CCOC(=O)C(C)NC(=O)C(C)NC(=O)C(C)NC(=O)C(C)NC(=O)C(C)NC(=O)C(C)NC(=O)C(C)NC(=O)OCc1ccccc1 (stereo not given) (Cbz-AAAAAAA-OEt; configuration not given here)"
  REPORTED MEASUREMENT: "> 100 µM (inactive)"

---

Here, each record is paired with measured GI50 data.
System: SF-295
ASSAY INFO: NCI tumour cell line growth inhibition, 48 h
The source made the active and inactive calls. No stated cut-off is given here; in the data, active = GI50 up to about 1.1 µM and inactive = higher.
MEASURE NAME: GI50

- COMPOUND: "O=C(Nc1cccc([N+](=O)[O-])c1)C(=O)C(C(=O)c1ccccc1-c1ccccc1)C1OC(=O)c2ccccc21 (centres undefined)"
  REPORTED MEASUREMENT: "22 µM (inactive)"
- COMPOUND: "CN(C)/C=N/S(=O)(=O)c1nn2c(C=O)c(-c3ccc(Cl)cc3)nc2s1"
  REPORTED MEASUREMENT: "14.4 µM (inactive)"
- COMPOUND: "CC(=O)NC1C(OCc2ccccc2)OC(CO)C(O)C1OCC(=O)N1CCCC1C(=O)NC(CCC(=O)NCCCCCNc1c2ccccc2nc2cccc([N+](=O)[O-])c12)C(N)=O (centres undefined)"
  REPORTED MEASUREMENT: "0.048 µM (active)"
- COMPOUND: "COc1cccc2c1[C@H]1CO[C@H]3C4C[C@H](C(=O)O)C([C@@H](C2)N13)N4C (some centres undefined)"
  REPORTED MEASUREMENT: "7.1 µM (inactive)"
- COMPOUND: "CC(C)(/N=N/C(C)(C)C1=NCCN1)C1=NCCN1"
  REPORTED MEASUREMENT: "> 100 µM (inactive)"
- COMPOUND: "CNc1cc([N+](=O)[O-])ccc1C(=O)N1CCC[C@H]1CO"
  REPORTED MEASUREMENT: "> 100 µM (inactive)"
- COMPOUND: "Cc1ccc2c(c1)C1(C)OC(CC(N)C1O)O2 (centres undefined)"
  REPORTED MEASUREMENT: "> 100 µM (inactive)"
- COMPOUND: "O=C1OC(C2=CC(=O)c3ccccc3C2=O)C(Cl)=C1Cl (centres undefined)"
  REPORTED MEASUREMENT: "86.5 µM (inactive)"
- COMPOUND: "CC(=O)Oc1ccc2[nH]c3c(C)c4cccc-4ccc3c2c1"
  REPORTED MEASUREMENT: "2.02 µM (inactive)"

---

System: LXFL 529
ASSAY INFO: NCI tumour cell line growth inhibition, 48 h
The source made the active and inactive calls. No stated cut-off is given here; in the data, active = GI50 up to about 1.1 µM and inactive = higher.
Outcomes: active, inactive

- COMPOUND: "Clc1ccc(C2SCc3nc4ccccc4n32)cc1 (configuration not stated)"
  TARGET SYSTEM: "LXFL 529"
  ASSIGNED CATEGORY: "inactive"
- COMPOUND: "COc1ccc2ccc([Se]c3ccc4ccc(OC)cc4c3)cc2c1"
  TARGET SYSTEM: "LXFL 529"
  ASSIGNED CATEGORY: "inactive"
- COMPOUND: "O=C(Cc1nc2ccccc2o1)C(=O)Nc1ccccc1C(F)(F)F"
  TARGET SYSTEM: "LXFL 529"
  ASSIGNED CATEGORY: "inactive"
- COMPOUND: "CCC(=O)c1cn(C)c(=O)c2ccccc12"
  TARGET SYSTEM: "LXFL 529"
  ASSIGNED CATEGORY: "inactive"
- COMPOUND: "CCOC(=O)C/C(=N\\c1cc(C)on1)N(CC)CC.[O-][Cl+3]([O-])([O-])O"
  TARGET SYSTEM: "LXFL 529"
  ASSIGNED CATEGORY: "inactive"
- COMPOUND: "COc1cccc2c1[C@H]1CO[C@H]3C4C[C@H](C(=O)O)C([C@@H](C2)N13)N4C (some centres not stated)"
  TARGET SYSTEM: "LXFL 529"
  ASSIGNED CATEGORY: "inactive"
- COMPOUND: "CC(=O)Oc1c(C)n(CCCl)ccc1=O"
  TARGET SYSTEM: "LXFL 529"
  ASSIGNED CATEGORY: "inactive"
- COMPOUND: "CSc1cnc2ccccc2c1Sc1c[nH]c2ccccc2c1=O"
  TARGET SYSTEM: "LXFL 529"
  ASSIGNED CATEGORY: "inactive"
- COMPOUND: "COC(=O)C(=O)C(CC(=O)Nc1cccc(C(F)(F)F)c1)C(=O)OC (configuration not stated)"
  TARGET SYSTEM: "LXFL 529"
  ASSIGNED CATEGORY: "inactive"
- COMPOUND: "CC1(SCC(N)C(=O)O)CC(=O)NC1=O (configuration not stated)"
  TARGET SYSTEM: "LXFL 529"
  ASSIGNED CATEGORY: "inactive"
- COMPOUND: "O=C(NCC(O)CNC(=O)C(F)(F)F)C(F)(F)F"
  TARGET SYSTEM: "LXFL 529"
  ASSIGNED CATEGORY: "inactive"
- COMPOUND: "C=C(CC(NC(=O)c1ccc(C(CC)Cc2cnc3nc(N)nc(N)c3n2)cc1)C(=O)O)C(=O)O (configuration not stated)"
  TARGET SYSTEM: "LXFL 529"
  ASSIGNED CATEGORY: "active"
- COMPOUND: "O=C(CCN1CCCCC1CO)Nc1ccc2c(c1)C(=O)c1ccc(NC(=O)CCN3CCCCC3CO)cc1C2=O (configuration not stated)"
  TARGET SYSTEM: "LXFL 529"
  ASSIGNED CATEGORY: "inactive"
- COMPOUND: "Cc1ccc(N2C(=O)CS/C2=C(\\C#N)c2nc3ccccc3[nH]2)cc1"
  TARGET SYSTEM: "LXFL 529"
  ASSIGNED CATEGORY: "inactive"
- COMPOUND: "O=C(Nc1cccc([N+](=O)[O-])c1)C(=O)C(C(=O)c1ccccc1-c1ccccc1)C1OC(=O)c2ccccc21 (configuration not stated)"
  TARGET SYSTEM: "LXFL 529"
  ASSIGNED CATEGORY: "inactive"
- COMPOUND: "CCCOC(=O)C1CCC(=O)N1C(=O)C(Cl)Cl (configuration not stated)"
  TARGET SYSTEM: "LXFL 529"
  ASSIGNED CATEGORY: "inactive"
- COMPOUND: "Cc1ccc(C(=O)O/N=C2/CCCCC2CN(C)C)cc1 (configuration not stated)"
  TARGET SYSTEM: "LXFL 529"
  ASSIGNED CATEGORY: "inactive"
- COMPOUND: "COc1ccc2c(c1)[n+]([O-])c(C(N)=O)c(N)[n+]2[O-]"
  TARGET SYSTEM: "LXFL 529"
  ASSIGNED CATEGORY: "inactive"
- COMPOUND: "Cc1cc(Cl)ccc1N1C(=O)C(=O)C(c2nc3ccccc3s2)/C(=N\\NC(=O)c2ccccc2O)C1=O (configuration not stated)"
  TARGET SYSTEM: "LXFL 529"
  ASSIGNED CATEGORY: "inactive"
- COMPOUND: "CC(C)(C)[Si](C)(C)OCCCC#CCO"
  TARGET SYSTEM: "LXFL 529"
  ASSIGNED CATEGORY: "inactive"
- COMPOUND: "COc1ccc(C(=O)O)c(Br)c1OCc1ccccc1"
  TARGET SYSTEM: "LXFL 529"
  ASSIGNED CATEGORY: "inactive"
- COMPOUND: "CC(=O)NC(CCCN(Cc1ccccc1)C(=O)N(C)N=O)C(=O)NCc1ccccc1 (configuration not stated)"
  TARGET SYSTEM: "LXFL 529"
  ASSIGNED CATEGORY: "inactive"
